Provenance of the data: the RNAGym collection of RNA variant scans (doi:10.1126/science.aae0568)

B1: tRNA (parent)
chain: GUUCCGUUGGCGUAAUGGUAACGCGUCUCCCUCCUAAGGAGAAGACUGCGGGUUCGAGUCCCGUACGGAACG

# Variants of: B1
# Test protocol: yeast fitness relative to wild type (ratio to wild type); higher = fitter; tRNA-Arg(CCU), competitive growth, 37 C, YPD
Fewer inactive variants are shown than the library holds.
Parameter measured: yeast fitness

Task: Tell me its yeast fitness given U28C G52A C61U as the entry.
Output: 0.698

Task: Tell me its yeast fitness given C27A C34A as the entry.
Output: 0.68

Task: Tell me its yeast fitness given C4U A15C C46U as the entry.
Output: 0.7

# next variant below
Task: Tell me its yeast fitness given G6A A20C C46G as the entry.
Output: 0.696
